- study_target: T1, human IL-33 (mm2) (human, UniProt O95760 112-270)
- T1 construct: Variant in which all four cysteine residues are serine; the entry carries an N-terminal Met and a C-terminal His6; Biotinylated in some assays; also called hIL-33 (mm2); huIL-33 (mm2)
- T1 chain: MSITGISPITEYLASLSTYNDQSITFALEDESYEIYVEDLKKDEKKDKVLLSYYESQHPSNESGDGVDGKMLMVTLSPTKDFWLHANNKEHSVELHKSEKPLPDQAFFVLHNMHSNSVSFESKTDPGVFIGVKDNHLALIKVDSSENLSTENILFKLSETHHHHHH
- protocol_description: BIAcore, IgG captured by anti-human Fc, 125 nM IL-33 (mm2)
- Description: Binding to human and cynomolgus monkey IL-33 was measured by surface plasmon resonance using a BIAcore T200 instrument. An anti-human Fc antibody was immobilized on a CM5 chip, and anti-IL-33 antibodies were captured.
assay_readout: koff (s⁻¹)
All answers are understood in s⁻¹, so give the number only.

binder	assay_readout	data_value
9B3-5 (antibody, human IgG1, kappa, V domains shown) VH: EVQLVETGGGLVQPGRSLKLSCVASGFTFSNYWMYWIRQAPGMGLEWVSSINNDGGNTYYLDSVKGRFTISRNNAENTVYLQMNSLRSEDTATYYCAKGHYSYTSYSFGYWGQGTLVTVSS VL: DIQMTQSPSVLSASVGDRVTLSCKASHNINKHLDWYQQKVGEAPKLLIYFTNNLQTGIPSRFSGSGSGTDYTLTISSLQPEDVATYFCFQYNSGWTFGQGTKVEIKR	koff	0.000325
9B3-162 (antibody, human IgG1, kappa, V domains shown) VH: EVQLVETGGGLVQPGRSLKLSCVASGFTFSNYWMYWIRQAPGMGLEWVSSINNDGGNTYYLDSVKGRFTISRNNAENTVYLQMNSLRSEDTATYYCAKGHYYYSSYSFGYWGQGTLVTVSS VL: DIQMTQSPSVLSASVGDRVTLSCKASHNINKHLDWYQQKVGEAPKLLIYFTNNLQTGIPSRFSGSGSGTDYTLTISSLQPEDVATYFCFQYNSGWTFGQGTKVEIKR	koff	0.000642

Query string: // fetch koff given entry 9B3-79 (antibody, human IgG1, kappa, V domains shown) VH: EVQLVETGGGLVQPGRSLKLSCVASGFTFSNYWMYWIRQAPGMGLEWVSSINNDGGNTYYLDSVKGRFTISRNNAENTVYLQMNSLRSEDTATYYCARGHYYYTSYSFAYWGQGTLVTVSS VL: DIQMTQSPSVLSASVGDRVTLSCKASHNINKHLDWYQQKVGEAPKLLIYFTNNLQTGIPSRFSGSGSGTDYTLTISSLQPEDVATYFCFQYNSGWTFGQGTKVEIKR
Result string: 0.000543
